Data origin: patent US12617773B2

Assayed target: human CCR6 (Homo sapiens, UniProt P51684)
Construct: expressed in transfected cells; host or cells: HEK-293
Protocol summary: FLIPR assay (inhibition of CCL20-induced calcium signal)
Type: cell-based
Applied conditions: HEK-293 cells expressing human CCR6; mean values where determined several times; read-out: FLIPR IC50
pIC50: −log10 of the molar value.
Property measured: pIC50

• CC(=O)N(C)C1(Cc2nc(-c3cncc([C@@](O)(c4ccc(C(C)C)cc4)C4(C)CN(C)C4)c3)no2)CC1 = 6.91
• Cc1cc(C(C)(O)C#Cc2cncc([C@@](O)(c3ccc(C(C)C)cc3)C3(C)CN(C)C3)c2)on1 (stereo partly shown) = 7.33
• COCC(C)(C)c1noc(-c2cncc([C@@](O)(c3ccc(C4CC4)cc3)C3(C)CN(C)C3)c2)n1 = 6.89
• CC(C)c1ccc([C@](O)(c2cncc(C#CC(C)(O)c3cc(C(F)(F)F)ncn3)c2)C2(C)CN(C)C2)cc1 (stereo partly shown) = 7.85

[1] CC(C)c1ccc(C(O)(c2cncc(OCC3COC3)c2)C2(C)CN(C)C2)cc1 (stereo not shown)
[2] CC(C)C(=O)NC(C)(C)Cc1nc(-c2cncc([C@@](O)(c3ccc(C(C)C)cc3)C3(C)CN(C)C3)c2)no1
[3] CC(C)c1ccc([C@](O)(c2cncc(OCc3ccccc3)c2)C2(C)CN(C)C2)cc1
Prompt: Form: Sort by [pIC50] Order [ ascending ] Answer format: the labels, ordered as requested.
Completion: 1, 2, 3
(1: 6.61, 2: 6.89, 3: 7.59)

* * *

Assayed target: human CCR6 (Homo sapiens)
Construct: expressed in transfected cells; host or cells: HEK-293
Sequence (P51684 1-374): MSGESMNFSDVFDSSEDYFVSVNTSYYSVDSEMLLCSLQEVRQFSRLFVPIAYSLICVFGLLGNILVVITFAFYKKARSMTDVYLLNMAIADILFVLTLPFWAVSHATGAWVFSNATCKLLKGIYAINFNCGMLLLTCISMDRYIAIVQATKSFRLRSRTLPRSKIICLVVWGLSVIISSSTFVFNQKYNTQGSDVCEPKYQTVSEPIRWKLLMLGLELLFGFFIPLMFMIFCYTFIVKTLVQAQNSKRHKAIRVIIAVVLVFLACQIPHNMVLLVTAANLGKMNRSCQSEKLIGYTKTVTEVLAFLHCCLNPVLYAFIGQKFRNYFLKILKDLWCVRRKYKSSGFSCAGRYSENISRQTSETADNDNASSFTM
Protocol summary: FLIPR assay (inhibition of CCL20-induced calcium signal)
Type: cell-based
Applied conditions: HEK-293 cells expressing human CCR6; mean values where determined several times; read-out: FLIPR IC50
Property measured: IC50 (nM)

Consider the reported IC50 for these compounds:
* CC(C)c1ccc([C@](O)(c2cncc(N3CC(C(F)(F)F)CC3=O)c2)C2(C)CN(C)C2)cc1 (some centres unmarked) | 135
* CC(=O)N1CCC(c2nc(-c3cncc([C@@](O)(c4ccc(C5CCC5)cc4)C4(C)CN(C)C4)c3)no2)CC1 | 84.5
* Cc1cccc(C(C)(O)C#Cc2cncc([C@@](O)(c3ccc(C4(C)CC4)cc3)C3(C)CN(C)C3)c2)n1 (some centres unmarked) | 55

[a] CC(C)c1ccc([C@](O)(c2cncc(-c3noc(C(C)(O)CO)n3)c2)C2(C)CN(C)C2)cc1 (some centres unmarked)
[b] CC(C)c1ccc([C@](O)(c2cncc(-c3nc(CC(C)(C)O)no3)c2)C2(C)CN(C)C2)cc1
Prompt: Param pair: a , b . Output: the one whose IC50 is numerically greater. Give the label of your selection.
Completion: a
(a: 240 nM, b: 103 nM)

* * *

Assayed target: human CCR6 (Homo sapiens, UniProt P51684)
Construct: expressed in transfected cells; host or cells: HEK-293
Sequence (P51684 1-374): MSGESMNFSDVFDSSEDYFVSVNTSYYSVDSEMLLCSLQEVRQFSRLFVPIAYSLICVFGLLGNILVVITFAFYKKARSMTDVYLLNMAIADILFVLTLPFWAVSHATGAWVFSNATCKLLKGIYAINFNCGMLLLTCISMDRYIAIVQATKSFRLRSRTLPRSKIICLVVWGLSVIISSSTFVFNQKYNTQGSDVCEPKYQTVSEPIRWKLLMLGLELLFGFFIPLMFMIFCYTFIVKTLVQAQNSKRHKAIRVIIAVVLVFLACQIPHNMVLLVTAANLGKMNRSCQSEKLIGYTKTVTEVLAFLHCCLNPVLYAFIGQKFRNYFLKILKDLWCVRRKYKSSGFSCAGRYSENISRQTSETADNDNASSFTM
Protocol summary: FLIPR assay (inhibition of CCL20-induced calcium signal)
Format: cell-based
Applied conditions: HEK-293 cells expressing human CCR6; mean values where determined several times; read-out: FLIPR IC50
pIC50: −log10 of the molar value.
Property measured: pIC50

Example results:
- CC(C)c1ccc([C@](O)(c2cncc(-c3noc(CC4(NC(=O)C5CCOCC5)CC4)n3)c2)C2(C)CN(C)C2)cc1: 6.42
- CN1CC(C)([C@](O)(c2ccc(C(F)(F)C(F)(F)F)cc2)c2cncc(-c3noc(C(C)(C)O)n3)c2)C1: 7.46

[a] CC(C)c1ccc([C@](O)(c2cncc(CCC(C)(C)O)c2)C2(C)CN(C)C2)cc1
[b] Cc1cc(-c2nc(-c3cncc([C@@](O)(c4ccc(C(C)C)cc4)C4(C)CN(C)C4)c3)no2)ncn1
Prompt: Hello, I am sorting some records. Could you say if a or b has the smaller pIC50 value? API: response body contains the label of the selected item.
Completion: a

* * *

Assayed target: human CCR6 (Homo sapiens, UniProt P51684)
Construct: expressed in transfected cells; host or cells: HEK-293
Protocol summary: FLIPR assay (inhibition of CCL20-induced calcium signal)
Format: cell-based
Applied conditions: HEK-293 cells expressing human CCR6; mean values where determined several times; read-out: FLIPR IC50
Experimental: FLIPR assay: The bioactivity of compounds is tested in a fluorometric imaging plate reader (FLIPR: Molecular Devices) using engineered HEK-293 cells expressing the human CCR6 (GenBank: AY242126). […] Changes in fluorescence are monitored before and after addition of the test compounds and agonist. […] The calculated IC50 values may fluctuate depending on the daily assay performance. […]
pIC50: −log10 of the molar value.
Property measured: pIC50

- CC(C)c1ccc([C@](O)(c2cnnc(N3CC(c4cccc(C(C)C)n4)CC3=O)c2)C2(C)CN(C)C2)cc1 (stereo partly drawn): 8.10
- COc1ccc(C(C)(O)C#Cc2cncc([C@@](O)(c3ccc(C(C)C)cc3)C3(C)CN(C)C3)c2)cc1 (stereo partly drawn): 7.68
- COCCN1CC(C)([C@](O)(c2ccc(C(C)C)cc2)c2cncc(-c3noc(C4CCN(C(C)=O)CC4)n3)c2)C1: 6.31
- Cc1csc(-c2cncc(C(O)(c3ccc(C(C)C)cc3)C3(C)CN(C)C3)c2)n1 (stereo not drawn): 7.56

[A] CC(C)c1ccc(C(O)(c2cccc(N3CCCC3)n2)C2(C)CN(C)C2)cc1 (stereo not drawn)
[B] CC(C)c1ccc([C@](O)(c2cncc(C#C[C@@H](C)O)c2)C2(C)CN(C)C2)cc1
[C] CC(C)c1ccc([C@](O)(c2cncc(C#CC(O)C(C)C)c2)C2(C)CN(C)C2)cc1 (stereo partly drawn)
Prompt: Put these in order: smallest pIC50 first, largest last. Reply: labels, ordered per the request.
Completion: A, B, C

[I] CC(C)c1ccc([C@](O)(c2cncc(-c3noc(C4CC5CCC4O5)n3)c2)C2(C)CN(C)C2)cc1 (stereo partly drawn)
[II] CCC(=O)N1CCC(O)(c2nc(-c3cncc([C@@](O)(c4ccc(C(C)C)cc4)C4(C)CN(C)C4)c3)no2)CC1
[III] CC(C)c1ccc([C@](O)(c2cncc(-c3noc([C@@H]4CCC(=O)N4)n3)c2)C2(C)CN(C)C2)cc1
Prompt: Arrange these compounds by their pIC50, starting with the largest number. Sort the labels as requested; that list is your answer.
Completion: I, II, III

* * *

Assayed target: human CCR6 (Homo sapiens)
Construct: expressed in transfected cells; host or cells: HEK-293
Sequence (P51684 1-374): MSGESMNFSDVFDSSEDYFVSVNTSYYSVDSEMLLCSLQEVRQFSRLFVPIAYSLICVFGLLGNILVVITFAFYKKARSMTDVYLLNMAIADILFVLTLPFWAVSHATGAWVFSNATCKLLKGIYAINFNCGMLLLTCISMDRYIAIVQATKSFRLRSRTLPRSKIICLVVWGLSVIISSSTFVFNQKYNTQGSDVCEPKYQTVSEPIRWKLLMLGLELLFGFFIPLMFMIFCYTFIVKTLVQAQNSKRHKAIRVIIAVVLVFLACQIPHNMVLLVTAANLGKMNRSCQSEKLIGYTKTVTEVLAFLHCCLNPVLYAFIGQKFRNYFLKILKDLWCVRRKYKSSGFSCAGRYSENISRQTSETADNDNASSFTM
Protocol summary: FLIPR assay (inhibition of CCL20-induced calcium signal)
Assay type: cell-based
Applied conditions: HEK-293 cells expressing human CCR6; mean values where determined several times; read-out: FLIPR IC50
Property measured: IC50 (nM)

[P] CC(=O)N1CCC(c2nc(-c3cncc([C@@](O)(c4ccc(C(C)C)cc4)C4(C)CN(CC(F)F)C4)c3)no2)CC1
[Q] CCOC(=O)N1CCC(c2nc(-c3cncc([C@@](O)(c4ccc(C(C)C)cc4)C4(C)CN(C)C4)c3)no2)CC1
[R] CC(=O)N1CC[C@H](Cc2nc(-c3cncc([C@@](O)(c4ccc(C(C)C)cc4)C4(C)CN(C)C4)c3)no2)C1
[S] CN1CC(C)([C@](O)(c2ccc(CC(F)(F)F)cc2)c2cncc(-c3noc(C4CCOCC4)n3)c2)C1
Prompt: Quick one: which order do the items above go in by IC50, smallest to largest? List the labels, following the order given in the request.
Completion: Q, S, R, P
